# System: 266 human PDZ domains (PDZome)
# MEASUREMENT_NOTES: Holdup assay (chromatographic retention, PDZome-binding profile, BI)
# Parameters: key: binding intensity: 0.00 = no binding, 1.00 = maximal binding
# TEST_CONDITIONS: PDZ domain PSMD9-1
*1 amine or outer side, *2 acyl side, *3 side chain or, on linkers, in order; H or OH if unused. Where a SMILES comes first, the peptide text is derived from it. The star is where a group is joined. X1 = O=C(CCCC[C@@H]1SC[C@@H]2NC(=O)N[C@@H]21)NCCCOCCOCCOCCCN*; Suc = O=C(CCC(=O)[*:2])[*:1]

>  <COMPOUND>
CC[C@H](C)[C@H](NC(=O)[C@H](CCC(N)=O)NC(=O)[C@@H](NC(=O)[C@H](Cc1c[nH]cn1)NC(=O)[C@H](CCC(N)=O)NC(=O)[C@H](CC(=O)O)NC(=O)[C@H](CCC(=O)O)NC(=O)[C@H](CC(=O)O)NC(=O)[C@H](Cc1ccccc1)NC(=O)[C@@H]1CCCN1C(=O)CCC(=O)NCCCOCCOCCOCCCNC(=O)CCCC[C@@H]1SC[C@@H]2NC(=O)N[C@@H]21)[C@@H](C)O)C(=O)N[C@H](C(=O)N[C@@H](CCCCN)C(=O)N[C@H](C(=O)O)C(C)C)[C@@H](C)O [PTEN_13] ({X1-Suc}-PFDEDQHTQITKV-OH)

>  <BI>
0.022

$$$$
>  <COMPOUND>
CC[C@H](C)[C@H](NC(=O)[C@H](CCC(N)=O)NC(=O)[C@@H](NC(=O)[C@H](Cc1c[nH]cn1)NC(=O)[C@H](CCC(N)=O)NC(=O)[C@H](CC(=O)O)NC(=O)[C@H](CCC(=O)O)NC(=O)[C@H](CC(=O)O)NC(=O)CCC(=O)NCCCOCCOCCOCCCNC(=O)CCCC[C@@H]1SC[C@@H]2NC(=O)N[C@@H]21)[C@@H](C)O)C(=O)N[C@H](C(=O)N[C@@H](CCCNC(=N)N)C(=O)N[C@H](C(=O)O)C(C)C)[C@@H](C)O [PTEN_KR] ({X1-Suc}-DEDQHTQITRV-OH)

>  <BI>
-0.039

$$$$
>  <COMPOUND>
CC[C@H](C)[C@H](NC(=O)[C@H](CCC(N)=O)NC(=O)[C@@H](NC(=O)[C@H](Cc1c[nH]cn1)NC(=O)[C@H](CCC(N)=O)NC(=O)[C@H](CC(=O)O)NC(=O)[C@H](CCC(=O)O)NC(=O)[C@H](CC(=O)O)NC(=O)CCC(=O)NCCCOCCOCCOCCCNC(=O)CCCC[C@@H]1SC[C@@H]2NC(=O)N[C@@H]21)[C@@H](C)O)C(=O)N[C@H](C(=O)N[C@@H](CCCCN)C(=O)N[C@H](C(=O)O)C(C)C)[C@@H](C)O

>  <BI>
-0.01

$$$$

====

Each entry below carries its recorded BI.
# SYSTEM: MAGI2-6 (Homo sapiens, UniProt Q86UL8)
# Sequence (Q86UL8 1147-1229): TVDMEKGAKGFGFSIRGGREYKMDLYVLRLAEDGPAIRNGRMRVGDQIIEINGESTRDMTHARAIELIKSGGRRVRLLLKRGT
# MEASUREMENT_NOTES: Holdup assay, MAGI2-6
# Format: binding
*1 amine or outer side, *2 acyl side, *3 side chain or, on linkers, in order; H or OH if unused. Where a SMILES comes first, the peptide text is derived from it. The star is where a group is joined. X1 = O=C(CCCC[C@@H]1SC[C@@H]2NC(=O)N[C@@H]21)NCCCOCCOCCOCCCN*; Suc = O=C(CCC(=O)[*:2])[*:1]

>  <COMPOUND>
CC[C@H](C)[C@H](NC(=O)[C@H](CCC(N)=O)NC(=O)[C@@H](NC(=O)[C@H](Cc1c[nH]cn1)NC(=O)[C@H](CCC(N)=O)NC(=O)[C@H](CC(=O)O)NC(=O)[C@H](CCC(=O)O)NC(=O)[C@H](CC(=O)O)NC(=O)CCC(=O)NCCCOCCOCCOCCCNC(=O)CCCC[C@@H]1SC[C@@H]2NC(=O)N[C@@H]21)[C@@H](C)O)C(=O)N[C@H](C(=O)N[C@@H](CCCNC(=N)N)C(=O)N[C@H](C(=O)O)C(C)C)[C@@H](C)O [PTEN_KR] ({X1-Suc}-DEDQHTQITRV-OH)

>  <BI>
0.358

$$$$
>  <COMPOUND>
CC[C@H](C)[C@H](NC(=O)[C@H](CCC(N)=O)NC(=O)[C@@H](NC(=O)[C@H](Cc1c[nH]cn1)NC(=O)[C@H](CCC(N)=O)NC(=O)[C@H](CC(=O)O)NC(=O)[C@H](CCC(=O)O)NC(=O)[C@H](CC(=O)O)NC(=O)[C@H](Cc1ccccc1)NC(=O)[C@@H]1CCCN1C(=O)CCC(=O)NCCCOCCOCCOCCCNC(=O)CCCC[C@@H]1SC[C@@H]2NC(=O)N[C@@H]21)[C@@H](C)O)C(=O)N[C@H](C(=O)N[C@@H](CCCCN)C(=O)N[C@H](C(=O)O)C(C)C)[C@@H](C)O [PTEN_13] ({X1-Suc}-PFDEDQHTQITKV-OH)

>  <BI>
0.236

$$$$
>  <COMPOUND>
CC[C@H](C)[C@H](NC(=O)[C@H](CCC(N)=O)NC(=O)[C@@H](NC(=O)[C@H](Cc1c[nH]cn1)NC(=O)[C@H](CCC(N)=O)NC(=O)[C@H](CC(=O)O)NC(=O)[C@H](CCC(=O)O)NC(=O)[C@H](CC(=O)O)NC(=O)CCC(=O)NCCCOCCOCCOCCCNC(=O)CCCC[C@@H]1SC[C@@H]2NC(=O)N[C@@H]21)[C@@H](C)O)C(=O)N[C@H](C(=O)N[C@@H](CCCCNC(C)=O)C(=O)N[C@H](C(=O)O)C(C)C)[C@@H](C)O [PTEN_Ac]

>  <BI>
0.469

$$$$
>  <COMPOUND>
CC[C@H](C)[C@H](NC(=O)[C@H](CCC(N)=O)NC(=O)[C@@H](NC(=O)[C@H](Cc1c[nH]cn1)NC(=O)[C@H](CCC(N)=O)NC(=O)[C@H](CC(=O)O)NC(=O)[C@H](CCC(=O)O)NC(=O)[C@H](CC(=O)O)NC(=O)CCC(=O)NCCCOCCOCCOCCCNC(=O)CCCC[C@@H]1SC[C@@H]2NC(=O)N[C@@H]21)[C@@H](C)O)C(=O)N[C@H](C(=O)N[C@@H](CCCCN)C(=O)N[C@H](C(=O)O)C(C)C)[C@@H](C)O [PTEN_11]

>  <BI>
0.176

$$$$

====

# System: 266 human PDZ domains (PDZome)
# MEASUREMENT_NOTES: Holdup assay (chromatographic retention, PDZome-binding profile, BI)
# Parameters: key: binding intensity: 0.00 = no binding, 1.00 = maximal binding
# TEST_CONDITIONS: PDZ domain SNTA1-1
*1 amine or outer side, *2 acyl side, *3 side chain or, on linkers, in order; H or OH if unused. Where a SMILES comes first, the peptide text is derived from it. The star is where a group is joined. X1 = O=C(CCCC[C@@H]1SC[C@@H]2NC(=O)N[C@@H]21)NCCCOCCOCCOCCCN*; Suc = O=C(CCC(=O)[*:2])[*:1]
Each entry below carries its recorded BI.

>  <MOLECULE>
CC[C@H](C)[C@H](NC(=O)[C@H](CCC(N)=O)NC(=O)[C@@H](NC(=O)[C@H](Cc1c[nH]cn1)NC(=O)[C@H](CCC(N)=O)NC(=O)[C@H](CC(=O)O)NC(=O)[C@H](CCC(=O)O)NC(=O)[C@H](CC(=O)O)NC(=O)CCC(=O)NCCCOCCOCCOCCCNC(=O)CCCC[C@@H]1SC[C@@H]2NC(=O)N[C@@H]21)[C@@H](C)O)C(=O)N[C@H](C(=O)N[C@@H](CCCCN)C(=O)N[C@H](C(=O)O)C(C)C)[C@@H](C)O [PTEN_11]

>  <BI>
0.18

$$$$
>  <MOLECULE>
CC[C@H](C)[C@H](NC(=O)[C@H](CCC(N)=O)NC(=O)[C@@H](NC(=O)[C@H](Cc1c[nH]cn1)NC(=O)[C@H](CCC(N)=O)NC(=O)[C@H](CC(=O)O)NC(=O)[C@H](CCC(=O)O)NC(=O)[C@H](CC(=O)O)NC(=O)CCC(=O)NCCCOCCOCCOCCCNC(=O)CCCC[C@@H]1SC[C@@H]2NC(=O)N[C@@H]21)[C@@H](C)O)C(=O)N[C@H](C(=O)N[C@@H](CCCCNC(C)=O)C(=O)N[C@H](C(=O)O)C(C)C)[C@@H](C)O [PTEN_Ac]

>  <BI>
0.41

$$$$
>  <MOLECULE>
CC[C@H](C)[C@H](NC(=O)[C@H](CCC(N)=O)NC(=O)[C@@H](NC(=O)[C@H](Cc1c[nH]cn1)NC(=O)[C@H](CCC(N)=O)NC(=O)[C@H](CC(=O)O)NC(=O)[C@H](CCC(=O)O)NC(=O)[C@H](CC(=O)O)NC(=O)[C@H](Cc1ccccc1)NC(=O)[C@@H]1CCCN1C(=O)CCC(=O)NCCCOCCOCCOCCCNC(=O)CCCC[C@@H]1SC[C@@H]2NC(=O)N[C@@H]21)[C@@H](C)O)C(=O)N[C@H](C(=O)N[C@@H](CCCCN)C(=O)N[C@H](C(=O)O)C(C)C)[C@@H](C)O [PTEN_13] ({X1-Suc}-PFDEDQHTQITKV-OH)

>  <BI>
0.142

$$$$
>  <MOLECULE>
CC[C@H](C)[C@H](NC(=O)[C@H](CCC(N)=O)NC(=O)[C@@H](NC(=O)[C@H](Cc1c[nH]cn1)NC(=O)[C@H](CCC(N)=O)NC(=O)[C@H](CC(=O)O)NC(=O)[C@H](CCC(=O)O)NC(=O)[C@H](CC(=O)O)NC(=O)CCC(=O)NCCCOCCOCCOCCCNC(=O)CCCC[C@@H]1SC[C@@H]2NC(=O)N[C@@H]21)[C@@H](C)O)C(=O)N[C@H](C(=O)N[C@@H](CCCNC(=N)N)C(=O)N[C@H](C(=O)O)C(C)C)[C@@H](C)O [PTEN_KR] ({X1-Suc}-DEDQHTQITRV-OH)

>  <BI>
0.395

$$$$
